Sourced from the supplement of paper PMC10065799

# Tested on: AncSZ;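 note: 11-residue human phosphosite peptides and single-mutation variants displayed on the E. coli surface, counted by deep sequencing, each peptide's frequency after selection divided by its frequency in the unselected input library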;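 note: frequency after pTyr selection over input frequency; kinase dosed for 20-30% of maximal phosphorylation in three min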
# TEST_DETAILS: phosphorylation enrichment, bacterial display (enrichment ratio); higher = better substrate or ligand; peptides without Tyr show the background
Each entry gets N if its phosphorylation enrichment stays under 0.9, and Y if its phosphorylation enrichment is 0.9 or above.

- ITEM_SEQUENCE: "RRMLQYLTVND [PPFIBP2_Y663]"
  ASSIGNED_LABEL: "N"
- ITEM_SEQUENCE: "DKPENYRRLDI [VHL_Y175_V170D]"
  ASSIGNED_LABEL: "N"
- ITEM_SEQUENCE: "EVVGGYSVHNA [MLH1_Y183_R182G]"
  ASSIGNED_LABEL: "N"
- ITEM_SEQUENCE: "FAFQLYDLDRD [CHP2_Y123_YF]"
  ASSIGNED_LABEL: "Y"
- ITEM_SEQUENCE: "EPYKVYRIVPE [IRF8_Y110]"
  ASSIGNED_LABEL: "N"

QUERY: Quick check: does EFISESCGEII [EZH2_Y641_Y641S] have phosphorylation enrichment greater than or equal to 0.9?
RESULT: Y

QUERY: Quick check: does IDGLEYLHSPG [STK11_Y166_Q170P] have phosphorylation enrichment greater than or equal to 0.9?
RESULT: Y
